The reader will find reported TPST activity (0 μM = 100.0) values listed item by item below.
# Tested on: Tyrosyl protein sulphotransferase (TPST)
# method: TPST activity assay in platelets from normal healthy blood donors (35S transfer from PAPS35 to EAY substrate)
# Assay type: biochemical, human
# protocol-conditions: Table 5; fatty acid 25 μM

Recorded TPST activity (0 μM = 100.0), per entry:
- molecule: "CCCC(=O)O [Butyric Acid]"
  assay-result: 76.1
- molecule: "CCCCCCCC/C=C\\CCCCCCCC(=O)O [Oleic Acid]"
  assay-result: 56.2
- molecule: "CC/C=C\\C/C=C\\C/C=C\\C/C=C\\C/C=C\\C/C=C\\CCC(=O)O [DHA, docosahexanoic acid]"
  assay-result: 117.8
- molecule: "CCCCCC/C=C\\CCCCCCCC(=O)O [Palmitoleic]"
  assay-result: 95.2

# evaluate next
Data request: # get_value(readout= TPST activity (0 μM = 100.0), system= Tyrosyl protein sulphotransferase (TPST)) for CCCCC/C=C\C/C=C\C/C=C\CCCCC(=O)O [GLA, gamma linolenic acid]
Data returned: 72.6

====

# System: Tyrosyl protein sulphotransferase (TPST)
# method: TPST activity assay in platelets from normal healthy blood donors (35S transfer from PAPS35 to EAY substrate)
# Assay type: biochemical, human
# protocol-conditions: Table 2; 100 μM; normal human platelets
The reader will find reported % Control TPST Activity values listed item by item below.
The figure you give is taken to be in %; do not add the unit.

Recorded % Control TPST Activity, per entry:
- compound: "N[C@@H](CCC(=O)O)C(=O)O [Glutamate]"
  % Control TPST Activity (%): 67
- compound: "NC(=O)CC[C@H](N)C(=O)O"
  % Control TPST Activity (%): 125
- compound: "O=C(O)CC(O)(CC(=O)O)C(=O)O [Citrate]"
  % Control TPST Activity (%): 113
- compound: "CCCCC[C@H](O)/C=C/[C@H]1[C@H](O)CC(=O)[C@@H]1C/C=C\\CCCC(=O)O [PGE2, prostaglandin E2]"
  % Control TPST Activity (%): 124

Data request: Returns the measured % Control TPST Activity for the input compound. Input: O=c1c(O)c(-c2ccc(O)c(O)c2)oc2cc(O)cc(O)c12
Data returned: 3

Data request: Returns the measured % Control TPST Activity for the input compound. Input: CCCC(=O)O
Data returned: 125

Data request: Returns the measured % Control TPST Activity for the input compound. Input: O=c1c(-c2ccc(O)cc2)coc2cc(O)cc(O)c12
Data returned: 74

Data request: Returns the measured % Control TPST Activity for the input compound. Input: CCCCC/C=C\C/C=C\CCCCCCCC(=O)O
Data returned: 113

Data request: Returns the measured % Control TPST Activity for the input compound. Input: O=C(O)CCC(=O)O [Succinate]
Data returned: 59

Data request: Returns the measured % Control TPST Activity for the input compound. Input: CCCCCCCC/C=C\CCCCCCCC(=O)O
Data returned: 111

====

# Tested on: Tyrosyl protein sulphotransferase (TPST)
# method: TPST activity assay in platelets from normal healthy blood donors (35S transfer from PAPS35 to EAY substrate)
# Assay type: biochemical, human
# protocol-conditions: Table 7; flavonoid 5 μM
Would you please tag the item label 1 when its TPST activity (0 μM = 100) is 80 or above, and label 0 when it is below?

Field: example entries. Status: answers known.
- smiles-repr: "O=c1c(O)c(-c2ccc(O)c(O)c2)oc2cc(O)cc(O)c12"
  target-or-test-system: "Tyrosyl protein sulphotransferase (TPST)"
  class-assignment: "label 0"
- smiles-repr: "O=c1c(O)c(-c2ccccc2)oc2ccccc12"
  target-or-test-system: "Tyrosyl protein sulphotransferase (TPST)"
  class-assignment: "label 1"

Data request: Tell me whether TPST activity (0 μM = 100) is at least 80 here: O=c1c(O)c(-c2ccc(O)cc2)oc2cc(O)cc(O)c12
Data returned: label 0

Data request: Tell me whether TPST activity (0 μM = 100) is at least 80 here: O=c1c(-c2ccc(O)cc2)coc2cc(O)cc(O)c12
Data returned: label 1

Data request: Tell me whether TPST activity (0 μM = 100) is at least 80 here: O=c1cc(-c2ccccc2)oc2ccccc12
Data returned: label 1

Data request: Tell me whether TPST activity (0 μM = 100) is at least 80 here: O=c1c(-c2ccc(O)cc2)coc2cc(O)ccc12
Data returned: label 1
